System: RARb:RXRa (NR concentration 270 nM, RXRa partner concentration 90 nM)
Test Description: PBM binding z-score (relative to random genomic background probes); higher = stronger binding; sequences stand for … in GC…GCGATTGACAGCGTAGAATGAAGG
Listed below: PBM binding z-score values for each entry.
Assay Metric: PBM binding z-score

INSERT INTO results (sequence_entry, assayed_system, assay_metric, value) VALUES
  ('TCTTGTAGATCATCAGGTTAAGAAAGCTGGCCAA', 'RARb:RXRa (NR concentration 270 nM, RXRa partner concentration 90 nM)', 'PBM binding z-score', 0.398),
  ('ATCCAAAGGTCGACGAGGTGAGTATACACCGTTT', 'RARb:RXRa (NR concentration 270 nM, RXRa partner concentration 90 nM)', 'PBM binding z-score', 4.07),
  ('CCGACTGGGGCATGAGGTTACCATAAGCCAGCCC', 'RARb:RXRa (NR concentration 270 nM, RXRa partner concentration 90 nM)', 'PBM binding z-score', 1.42),
  ('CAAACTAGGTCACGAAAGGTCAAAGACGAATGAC', 'RARb:RXRa (NR concentration 270 nM, RXRa partner concentration 90 nM)', 'PBM binding z-score', 5.69),
  ('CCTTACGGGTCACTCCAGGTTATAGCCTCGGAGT', 'RARb:RXRa (NR concentration 270 nM, RXRa partner concentration 90 nM)', 'PBM binding z-score', 3.64),
  ('CCTCGGACGACAACAGGAGGTCAGAGCTGCCAGA', 'RARb:RXRa (NR concentration 270 nM, RXRa partner concentration 90 nM)', 'PBM binding z-score', 1.96),
  ('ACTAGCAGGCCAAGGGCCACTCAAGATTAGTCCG', 'RARb:RXRa (NR concentration 270 nM, RXRa partner concentration 90 nM)', 'PBM binding z-score', 0.884),
  ('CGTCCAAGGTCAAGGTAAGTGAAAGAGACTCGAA', 'RARb:RXRa (NR concentration 270 nM, RXRa partner concentration 90 nM)', 'PBM binding z-score', 5.3),
  ('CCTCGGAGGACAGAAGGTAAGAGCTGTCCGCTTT', 'RARb:RXRa (NR concentration 270 nM, RXRa partner concentration 90 nM)', 'PBM binding z-score', 0.19),
  ('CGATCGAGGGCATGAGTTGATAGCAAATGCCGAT', 'RARb:RXRa (NR concentration 270 nM, RXRa partner concentration 90 nM)', 'PBM binding z-score', 1.94),
  ('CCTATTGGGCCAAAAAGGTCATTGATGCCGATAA', 'RARb:RXRa (NR concentration 270 nM, RXRa partner concentration 90 nM)', 'PBM binding z-score', 3.79),
  ('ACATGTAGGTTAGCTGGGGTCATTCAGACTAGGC', 'RARb:RXRa (NR concentration 270 nM, RXRa partner concentration 90 nM)', 'PBM binding z-score', 3.1);

----------
System: RARg:RXRa (NR concentration 270 nM, RXRa partner concentration 90 nM)
Test Description: PBM binding z-score (relative to random genomic background probes); higher = stronger binding; sequences stand for … in GC…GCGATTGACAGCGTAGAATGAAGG
Assay Metric: PBM binding z-score

INSERT INTO results (sequence_entry, assayed_system, value) VALUES
  ('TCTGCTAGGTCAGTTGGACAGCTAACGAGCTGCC', 'RARg:RXRa (NR concentration 270 nM, RXRa partner concentration 90 nM)', 2.24),
  ('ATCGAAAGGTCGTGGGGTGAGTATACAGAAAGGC', 'RARg:RXRa (NR concentration 270 nM, RXRa partner concentration 90 nM)', 5.2),
  ('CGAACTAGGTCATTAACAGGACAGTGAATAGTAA', 'RARg:RXRa (NR concentration 270 nM, RXRa partner concentration 90 nM)', 4.13),
  ('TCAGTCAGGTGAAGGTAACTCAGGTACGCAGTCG', 'RARg:RXRa (NR concentration 270 nM, RXRa partner concentration 90 nM)', 0.735),
  ('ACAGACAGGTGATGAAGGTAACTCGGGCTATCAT', 'RARg:RXRa (NR concentration 270 nM, RXRa partner concentration 90 nM)', 0.166),
  ('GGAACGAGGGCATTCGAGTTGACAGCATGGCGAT', 'RARg:RXRa (NR concentration 270 nM, RXRa partner concentration 90 nM)', 1.2),
  ('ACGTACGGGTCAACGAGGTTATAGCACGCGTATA', 'RARg:RXRa (NR concentration 270 nM, RXRa partner concentration 90 nM)', 5.69),
  ('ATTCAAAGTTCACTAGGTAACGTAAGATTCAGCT', 'RARg:RXRa (NR concentration 270 nM, RXRa partner concentration 90 nM)', 4.48),
  ('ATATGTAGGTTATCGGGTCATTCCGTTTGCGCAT', 'RARg:RXRa (NR concentration 270 nM, RXRa partner concentration 90 nM)', 3.32),
  ('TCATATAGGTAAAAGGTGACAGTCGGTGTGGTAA', 'RARg:RXRa (NR concentration 270 nM, RXRa partner concentration 90 nM)', 1.48),
  ('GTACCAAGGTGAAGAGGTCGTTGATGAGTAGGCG', 'RARg:RXRa (NR concentration 270 nM, RXRa partner concentration 90 nM)', 3.26),
  ('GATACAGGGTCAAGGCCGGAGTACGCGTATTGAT', 'RARg:RXRa (NR concentration 270 nM, RXRa partner concentration 90 nM)', 5.35),
  ('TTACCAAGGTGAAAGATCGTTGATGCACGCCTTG', 'RARg:RXRa (NR concentration 270 nM, RXRa partner concentration 90 nM)', 0.744),
  ('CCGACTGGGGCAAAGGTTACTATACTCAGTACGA', 'RARg:RXRa (NR concentration 270 nM, RXRa partner concentration 90 nM)', 2.75),
  ('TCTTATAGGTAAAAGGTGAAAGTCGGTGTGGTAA', 'RARg:RXRa (NR concentration 270 nM, RXRa partner concentration 90 nM)', 2.24),
  ('TCTTGTAGAGCAAGCAGGTTAAGAAAGCCTGAGT', 'RARg:RXRa (NR concentration 270 nM, RXRa partner concentration 90 nM)', -0.441),
  ('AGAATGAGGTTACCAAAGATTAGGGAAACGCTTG', 'RARg:RXRa (NR concentration 270 nM, RXRa partner concentration 90 nM)', 1.99),
  ('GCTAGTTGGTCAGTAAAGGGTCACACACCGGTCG', 'RARg:RXRa (NR concentration 270 nM, RXRa partner concentration 90 nM)', 4.33),
  ('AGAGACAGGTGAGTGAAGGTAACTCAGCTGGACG', 'RARg:RXRa (NR concentration 270 nM, RXRa partner concentration 90 nM)', 0.327),
  ('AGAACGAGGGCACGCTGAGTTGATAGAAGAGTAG', 'RARg:RXRa (NR concentration 270 nM, RXRa partner concentration 90 nM)', 1.97),
  ('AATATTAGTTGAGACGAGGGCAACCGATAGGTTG', 'RARg:RXRa (NR concentration 270 nM, RXRa partner concentration 90 nM)', 0.902),
  ('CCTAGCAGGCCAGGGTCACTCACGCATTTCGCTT', 'RARg:RXRa (NR concentration 270 nM, RXRa partner concentration 90 nM)', 2.79),
  ('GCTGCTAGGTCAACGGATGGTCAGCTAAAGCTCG', 'RARg:RXRa (NR concentration 270 nM, RXRa partner concentration 90 nM)', 4.98),
  ('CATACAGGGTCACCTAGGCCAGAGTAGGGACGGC', 'RARg:RXRa (NR concentration 270 nM, RXRa partner concentration 90 nM)', 5.53),
  ('ATCTCTAGGTAAGACTAAGTTCAGTGAAGAACGC', 'RARg:RXRa (NR concentration 270 nM, RXRa partner concentration 90 nM)', 0.933),
  ('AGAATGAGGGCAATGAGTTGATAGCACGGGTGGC', 'RARg:RXRa (NR concentration 270 nM, RXRa partner concentration 90 nM)', 1.31);

----------
Reported PBM binding z-score values for a set of sequences
System: THRa homodimer (NR concentration 90 nM)
Test Description: PBM binding z-score (relative to random genomic background probes); higher = stronger binding; sequences stand for … in GC…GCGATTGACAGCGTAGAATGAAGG
Assay Metric: PBM binding z-score

INSERT INTO measurements (sequence_entry, assay_metric, value) VALUES
  ('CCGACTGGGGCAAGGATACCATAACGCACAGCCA', 'PBM binding z-score', 0.154),
  ('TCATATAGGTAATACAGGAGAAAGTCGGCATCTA', 'PBM binding z-score', 0.0486),
  ('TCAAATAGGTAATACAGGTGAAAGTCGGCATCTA', 'PBM binding z-score', -0.0126),
  ('ATCGATAGGTCGAAGGTGAGTATACCCACCCGAA', 'PBM binding z-score', -0.266),
  ('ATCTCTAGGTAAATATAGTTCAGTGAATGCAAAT', 'PBM binding z-score', 0.0877),
  ('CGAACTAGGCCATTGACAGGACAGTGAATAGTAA', 'PBM binding z-score', -0.102),
  ('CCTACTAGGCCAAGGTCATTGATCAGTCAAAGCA', 'PBM binding z-score', 3.01),
  ('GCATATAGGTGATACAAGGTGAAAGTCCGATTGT', 'PBM binding z-score', 0.943),
  ('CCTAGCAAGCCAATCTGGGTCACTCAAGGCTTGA', 'PBM binding z-score', 0.441),
  ('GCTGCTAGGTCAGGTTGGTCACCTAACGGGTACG', 'PBM binding z-score', 1.04),
  ('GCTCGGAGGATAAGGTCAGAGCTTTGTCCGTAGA', 'PBM binding z-score', 2.82),
  ('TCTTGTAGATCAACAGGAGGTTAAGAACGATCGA', 'PBM binding z-score', -0.518),
  ('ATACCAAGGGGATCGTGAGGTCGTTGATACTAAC', 'PBM binding z-score', 1.66),
  ('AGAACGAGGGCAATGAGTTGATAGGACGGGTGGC', 'PBM binding z-score', -0.116),
  ('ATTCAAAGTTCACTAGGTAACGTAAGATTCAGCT', 'PBM binding z-score', 0.474),
  ('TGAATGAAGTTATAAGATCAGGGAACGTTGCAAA', 'PBM binding z-score', -0.931),
  ('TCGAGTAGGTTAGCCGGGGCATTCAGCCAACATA', 'PBM binding z-score', -0.114),
  ('GCATATAGGTAATACTAGGTGAAAGTCCGATTGT', 'PBM binding z-score', 0.246),
  ('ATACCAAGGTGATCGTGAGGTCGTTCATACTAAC', 'PBM binding z-score', 2.71),
  ('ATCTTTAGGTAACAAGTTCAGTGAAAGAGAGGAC', 'PBM binding z-score', 1.4),
  ('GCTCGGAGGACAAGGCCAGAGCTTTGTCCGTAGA', 'PBM binding z-score', -0.595),
  ('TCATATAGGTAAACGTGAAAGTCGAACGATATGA', 'PBM binding z-score', -0.279),
  ('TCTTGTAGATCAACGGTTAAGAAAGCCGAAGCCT', 'PBM binding z-score', -0.541),
  ('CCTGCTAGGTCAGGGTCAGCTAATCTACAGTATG', 'PBM binding z-score', 1.81),
  ('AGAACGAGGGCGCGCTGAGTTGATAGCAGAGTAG', 'PBM binding z-score', -0.623),
  ('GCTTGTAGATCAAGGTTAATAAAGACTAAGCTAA', 'PBM binding z-score', -0.489);

Value source: the supplement of paper PMC6555819
